Task for the reader: assign each of the following compounds its reported %Inh.
Tested on: ROCK1;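 note: KINOMEscan kinase panel screen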
Test conditions: concentration: 1 μM, replicates: in singlicate; n = 1
Give just the number in %; leave the unit off.

The compound Nc1nccc(-c2c(-c3ccc(F)cc3)ncn2C2CCN(Cc3ccccc3)CC2)n1 , when measured on ROCK1, yielded %Inh of 34

# %Inh measured on ROCK1 for item COc1ccc(CSc2nnc(-c3ccc4c(c3)CCO4)o2)cc1 = 0

Item CNc1nc(-c2ccc3c(N)n[nH]c3c2)cc(N2C[C@@H](C(=O)NC3CCCCC3)OC[C@H]2C)n1 ; assay system ROCK1; %Inh reported as 23

I looked up CC(C)c1cc(-c2ccc3c(N)n[nH]c3c2)nc(N)n1 and its %Inh for ROCK1 was 28

Note to self: %Inh of COc1ccc(Nc2nccc(N3CCC(NC(=O)c4cc5ccccc5s4)C3)n2)cc1 (stereo not drawn) with ROCK1 was 8

Log: ROCK1, compound COc1ccc(CSc2nnc(-c3ccc4ncsc4c3)o2)cc1C(F)(F)F , %Inh = 11

ROCK1 %Inh of O=c1cc(N2CCOCC2)nc2n(Cc3cccc(Cl)c3Cl)c3ccccc3n12 is 10

The measured %Inh that Cc1c(Cn2c3ccccc3n3c(=O)cc(N4CCOCC4)nc23)cccc1C(F)(F)F showed for ROCK1 is 0

Record Nc1cccc(-c2ccc3c(N)n[nH]c3c2)n1 ; system ROCK1; %Inh = 0

Lab entry: ROCK1 assay, compound COc1ccc2cc(-c3nc(-c4ccccc4C(C)C)[nH]c3-c3ccncc3)ccc2c1 , %Inh = 35

With ROCK1 as the test system, CNCc1ccc2nc(NC(=O)c3ccc(C(C)(C)C)cc3)cn2c1 showed %Inh of 5

Summary line: Cc1ccc(NC(=O)Nc2ccccc2)cc1-c1ccc(C(=O)Nc2ccncc2)cc1 , ROCK1, reported %Inh = 0

Entry Cc1ccc(NC(=O)Nc2ccc(Cl)c(C(F)(F)F)c2)cc1-c1ccc(C(=O)Nc2ccncc2)cc1 : %Inh on ROCK1 = 0

Noted %Inh for CC(=O)c1cccc(NC(=O)NC2CCN(c3ccnc(Nc4ccc(F)cc4)n3)C2)c1 (stereo not drawn) , tested on ROCK1: 0

ROCK1 data for CSc1ccc(-c2nc3n(c2-c2ccncc2)CCC3)cc1 ; its %Inh: 23

Item COC(=O)c1cccc(NC(=O)NC2CCN(c3ccnc(Nc4ccc(OC)cc4)n3)C2)c1 (stereo not drawn) was tested on ROCK1; the reported %Inh is 2

For Nc1ncnc2occ(-c3ccc4c(c3)CCN4C(=O)Cc3cc(F)ccc3F)c12 on ROCK1, measured %Inh was 12

So the reported %Inh for c1ccc(-c2ccnc3[nH]ccc23)cc1 , on ROCK1, turned out to be 90

O=C(Nc1n[nH]c2cc(-c3ccsc3)ccc12)C1CC1 tested on ROCK1 gave %Inh: 7

Note to self: %Inh of COc1ccc(Nc2nccc(N3CCC(NC(=O)C(C)c4ccc(Cl)cc4)CC3)n2)cc1 (stereo not drawn) with ROCK1 was 15

Bench note, ROCK1: entry CS(=O)(=O)CCNCc1nc(-c2ccc3ncnc(Nc4ccc5c(cnn5Cc5ccccc5)c4)c3c2)cs1.Cl.Cl , its %Inh = 47

For the compound O=C1NC(=O)C(c2ccc(Cl)cc2)=C1Nc1cccc(Cl)c1 , the measured %Inh on ROCK1 was 7

Considering O=C(Nc1n[nH]c2nc(-c3cccs3)c(Br)cc12)C1CC1 , its %Inh with ROCK1 was recorded as 0

For the compound Cn1cncc1C(=O)NC1CCN(c2ccnc(Nc3ccc(F)cc3)n2)C1 (stereo not drawn) , the measured %Inh on ROCK1 was 0

Fill in: ROCK1 %Inh for COC(=O)c1cccc(NC(=O)NC2CCN(c3ccnc(Nc4ccc(F)cc4)n3)C2)c1 (stereo not drawn) = 0

For the compound Fc1ccc(-c2nc3n(c2-c2ccncc2)CCS3)cc1 , the measured %Inh on ROCK1 was 11

# %Inh measured on ROCK1 for item Cc1ccc(NC(=O)Nc2ccc(Cl)cc2)cc1-c1ccc(C(=O)Nc2ccncc2)cc1 = 4

Observed %Inh on ROCK1, entry COC(=O)C(Cc1ccccc1)NC(=O)NC1CCN(c2ccnc(Nc3ccc(F)cc3)n2)C1 (stereo not drawn) , equals 9

Short answer on ROCK1 for O=C(Nc1n[nH]c2nc(-c3ccco3)c(Br)cc12)C1CCN(Cc2ccccc2)C1.O=C(O)[C@H](O)[C@@H](O)C(=O)O (stereo not drawn) , %Inh: 0

Observed %Inh on ROCK1, entry COc1ccc(Nc2nccc(NCCNC(=O)Nc3cc(C)ccc3C)n2)cc1 , equals 6

Bench note, ROCK1: entry CS(=O)(=O)CCNCc1nc(-c2ccc3ncnc(Nc4ccc(OCc5ccccc5)c(Cl)c4)c3c2)cs1.Cl , its %Inh = 45

Readout %Inh for CN1c2ccc(-c3ccc(C(N)=O)cc3)cc2-c2[nH]ncc2S1(=O)=O , test system ROCK1, was 0

Tested on ROCK1, the item CNC(=O)c1ccc(C)c(-n2c(C)cc(OCc3ccc(F)cc3F)c(Br)c2=O)c1 showed %Inh equal to 0

Value sought: %Inh, system ROCK1, item O=C1NC(=O)C(c2ccc(Cl)cc2)=C1Nc1ccc(O)cc1 . Result: 0

ROCK1 data for Cn1cncc1-c1cc2c(Nc3ccc(OCc4ccccc4)cc3)ncnc2cn1 ; its %Inh: 82

# value of %Inh, ROCK1, item Cc1ccccc1-c1cc(-c2c[nH]nc2-c2ccccn2)ccn1 = 0
